System: A549
protocol: NCI tumour cell line growth inhibition, 48 h
The source made the active and inactive calls. Cut-off read from the data, not from the text of the source: active = GI50 up to about 1.1 µM and inactive = higher.
Outcome codes: 1.0 for active, 0.0 for inactive

{"columns": ["compound", "class name"],
 "data": [
  ["c1ccc2c(c1)[nH]c1nc3cc(-c4ccc5nc6c(nc5c4)[nH]c4ccccc46)ccc3nc12", 0.0],
  ["CN1CC[C@@H](c2c(O)cc(O)c3c(=O)cc(-c4ccccc4Cl)oc23)[C@@H](O)C1", 1.0],
  ["CCNC1=C(NC(=O)c2ccccc2)C(=O)c2ccccc2C1=O", 0.0],
  ["O=C1/C(=N\\NC(=S)NC2CCCCC2)c2cc([N+](=O)[O-])ccc2N1CN1CCOCC1", 0.0],
  ["CC1=CC(=O)/C(=C/NC(=S)Nc2ccccc2)C(=O)O1", 0.0],
  ["Cc1ccc(S(=O)(=O)NC(=O)C2C(=O)CC3(CCCCC3)CC2=O)cc1", 0.0],
  ["O=C1c2ccccc2C(=O)N1c1nc(-c2ccc(Cl)cc2)cc(N2N=C(c3ccc(Br)cc3)CC2c2ccccc2)n1 (centres undefined)", 0.0],
  ["O=C1C[C@H](Sc2ccccc2)C2(OCCO2)[C@H]2ON3CCC[C@@H]3[C@@H]12", 0.0],
  ["CCOC(=O)c1ccc(Nc2nc3ccccc3nc2-c2cccs2)cc1", 0.0]
]}

###

Test system: SF-539
protocol: NCI tumour cell line growth inhibition, 48 h
Calls of active or inactive are those of the source. Cut-off read from the data, not from the text of the source: active = GI50 up to about 1.1 µM and inactive = higher.

{"columns": ["molecule", "GI50"],
 "data": [
  ["CCOC(=O)/N=c1/nc(N(C)C)ss1", "> 100 µM (inactive)"],
  ["COc1cc(Nc2nc3cc(C(F)(F)F)ccc3n3cccc23)cc(OC)c1OC", "> 100 µM (inactive)"],
  ["O=C1/C(=C/c2ccc(Cl)cc2)COc2ccc(Br)cc21", "> 100 µM (inactive)"],
  ["CC(=O)c1ccccc1NC(=O)C(=O)C(C(=O)c1ccccc1-c1ccccc1)C1OC(=O)c2ccccc21 (stereo unspecified)", "17.8 µM (inactive)"],
  ["CS/C(=N\\S(=O)(=O)c1ccc(Cl)cc1)NCCN/C(=N/S(=O)(=O)c1ccc(Cl)cc1)SC", "61.4 µM (inactive)"],
  ["COC(=O)c1ccccc1C1CN=NC12Cc1ccc3ccccc3c1C2=O (stereo unspecified)", "73.8 µM (inactive)"]
]}

###

Tested on: MCF7
protocol: NCI tumour cell line growth inhibition, 48 h
The source made the active and inactive calls. Cut-off read from the data, not from the text of the source: active = GI50 up to about 1.1 µM and inactive = higher.

{"columns": ["molecule", "GI50"],
 "data": [
  ["CCOC(=O)O/N=C1/C(=C2/C(=O)Nc3ccccc32)Nc2ccccc21", "3.69 µM (inactive)"],
  ["C#C[C@]1(O)[C@@H](CO)O[C@@H](n2ccc(=O)[nH]c2=O)[C@@H]1O", "0.0339 µM (active)"],
  ["CC(=O)OC[C@@]12C[C@H]3C(=O)C(C)(C)C[C@H]3[C@]1(C)[C@@H](OC(C)=O)[C@]1(O)[C@H]([C@@H](OC(=O)c3ccccc3)[C@@H](C)[C@H]1OC(C)=O)[C@H]2OC(C)=O", "> 20 µM (inactive)"],
  ["Cc1sc(Cc2ccccc2)nc1-c1ccc(N)cc1", "19.5 µM (inactive)"],
  ["CCOC1CCC2C(CCC(/C=C/c3ccc(O)c4ncccc34)N2C)C1 (stereo not given)", "4.23 µM (inactive)"]
]}

###

System: RPMI-8226
protocol: NCI tumour cell line growth inhibition, 48 h
Active and inactive are the calls of the source. Rule as the data show it: active = GI50 up to about 1.1 µM and inactive = higher.
Reported GI50 is given for each of the following molecules.

{"columns": ["molecule", "GI50"],
 "data": [
  ["COC(=O)CC1C=CC(C)(OC)OO1 (configuration not stated)", "56.2 µM (inactive)"],
  ["O=C(CCn1ccnc1[N+](=O)[O-])NCCCn1ccnc1[N+](=O)[O-]", "> 100 µM (inactive)"],
  ["CN(C(=O)c1ccc([N+](=O)[O-])cc1)c1ccccc1", "> 100 µM (inactive)"],
  ["COc1c(C)n(CCO)ccc1=O", "> 100 µM (inactive)"],
  ["N#Cc1c(-c2ccccc2)cc(Nc2ccc(F)cc2)n2c1nc1ccccc12", "3.56 µM (inactive)"],
  ["O=C1CC2(CCNCC2)C(=O)N1N1CCCC1", "> 100 µM (inactive)"],
  ["O=C1/C(=C\\c2cccc(Oc3ccccc3)c2)SC(c2ccccc2)N1c1cccc([N+](=O)[O-])c1 (configuration not stated)", "34.7 µM (inactive)"]
]}

###

System: CCRF-CEM
protocol: NCI tumour cell line growth inhibition, 48 h
Activity calls are given as the source filed them. Cut-off read from the data, not from the text of the source: active = GI50 up to about 1.1 µM and inactive = higher.
Outcome codes: active, inactive

{"columns": ["molecule", "class name"],
 "data": [
  ["CN(C)CCCNc1ccnc2cccc([N+](=O)[O-])c12", "inactive"],
  ["Cc1ccc(S(=O)(=O)N/N=C2\\CC(C)OC3=C2CCCCCC3)cc1 (stereo not given)", "inactive"],
  ["Cc1ccc(NC(=O)CCCC(=O)CC(=O)c2ccc(Br)cc2)cc1", "inactive"],
  ["O=c1cc(-c2ccccc2)[nH]c2cc(Cl)cc(Cl)c12", "inactive"],
  ["CC[C@@H]1CC[C@@H]2[C@H](CC[C@]3(C)[C@@H](O[N+](=O)[O-])CC[C@@H]23)[C@H]1C(C)=O", "inactive"],
  ["COc1cc(Nc2nc3cc(C(F)(F)F)ccc3n3cccc23)cc(OC)c1OC", "inactive"],
  ["Cc1cccc(Br)[n+]1[O-]", "inactive"],
  ["CC(C)C1=CC23CCC4C(C)(C(=O)O)CCCC4(C)C2CC1C1C(=O)N(c2ccc(N4C(=O)C5C6CC7C8(C)CCCC(C)(C(=O)O)C8CCC7(C=C6C(C)C)C5C4=O)cc2)C(=O)C13 (stereo not given)", "inactive"],
  ["CC1=NC(=Cc2ccc([N+](=O)[O-])cc2)C(=O)N1n1c(-c2ccccc2)nc2ccccc2c1=O", "inactive"],
  ["COc1cc(NCC(C#N)C#N)ccc1/N=N/c1ccc(Cl)cc1", "inactive"],
  ["CC1CC/C(=C\\c2ccc(Cl)cc2)c2nc(N)c(C#N)c(-c3ccc(Cl)cc3)c21 (stereo not given)", "inactive"],
  ["C=CCC(CC=O)(C(=O)OCC)C(=O)OCC", "inactive"],
  ["Clc1ccc2[nH]c(CCSCCc3nc4ccc(Cl)cc4[nH]3)nc2c1", "inactive"],
  ["COC(=O)c1ccccc1C1CN=NC12Cc1ccc3ccccc3c1C2=O (stereo not given)", "inactive"],
  ["CN1CC[C@@H](c2c(O)cc(O)c3c(=O)cc(-c4ccccc4Cl)oc23)[C@@H](O)C1", "active"],
  ["O=C(CC(=O)N1N=C(N2CCCCC2)CC1c1ccccc1)Nc1ccccc1 (stereo not given)", "inactive"],
  ["CC1=CC[C@@H]2[C@@H](CC[C@@]2(C)O)C(C)(C)[C@H]1CC[C@@H]1[C@@]2(C)CCC(=O)C(C)(C)O[C@@H]2CC[C@]1(C)O", "inactive"],
  ["O=C1CCCc2ccc3c(c21)CC1(Cc2cc4c(cc2C1)CCCC4)C3", "inactive"],
  ["Cc1ccc(S(=O)(=O)NC(=O)C2C(=O)CC3(CCCCC3)CC2=O)cc1", "inactive"],
  ["C/C(=C(/C)c1cc[n+](C)cc1)c1cc[n+](C)cc1", "inactive"],
  ["CC(=O)c1nc2ccccc2n1CC(=O)c1ccc([N+](=O)[O-])cc1", "inactive"],
  ["CC/C(CC(=O)CCC(=O)Nc1ccccc1[N+](=O)[O-])=N/NC(=O)C[n+]1ccccc1", "inactive"],
  ["C/C=C\\C(C)=C/C(C)C(=O)CC(O)CC1CC(=O)NC(=O)C1 (stereo not given)", "inactive"],
  ["O=C1C(C2=[N+]([O-])c3ccccc3C2=O)=[N+]([O-])c2ccccc21", "inactive"],
  ["CN(C)c1cccc(-c2cc(O)c3ccccc3n2)c1", "inactive"],
  ["Cc1ccc2c(c1)C(=O)/C(=N/Nc1ccc(Cl)cc1)CCO2", "inactive"],
  ["CCNC1=C(NC(=O)c2ccccc2)C(=O)c2ccccc2C1=O", "inactive"],
  ["C#C[C@]1(O)[C@@H](CO)O[C@@H](n2ccc(=O)[nH]c2=O)[C@@H]1O", "active"],
  ["CC(C)(C)OC(=O)NC(Cc1ccc(OCc2ccccc2)cn1)C(=O)N1CCCCC1 (stereo not given)", "inactive"],
  ["Cc1cc(C(F)(F)F)cc(-n2nc(NS(=O)(=O)c3cc(C)c(Cl)cc3S)nc2N)n1", "inactive"],
  ["COc1cc(CNC(=O)CCCCCCCCCCSSCCCCCCCCCCC(=O)NCc2ccc(O)c(OC)c2)ccc1O", "inactive"],
  ["CS/C(=N\\S(=O)(=O)c1ccc(Cl)cc1)NCCN/C(=N/S(=O)(=O)c1ccc(Cl)cc1)SC", "inactive"],
  ["CCCCCCCC/C=C/CCCCCCCC1CC(O)C(=O)O1 (stereo not given)", "inactive"],
  ["COc1cc(NS(C)(=O)=O)ccc1N1Cc2c[nH]c3ccc4nc(C)cc1c4c23", "inactive"],
  ["O=C1CC2(CCNCC2)C(=O)N1N1CCCC1", "inactive"],
  ["COC(=O)c1cncc2c1CC1C3(C(=O)OC)C=NC(C4C(CO)=CCC43)C21C (stereo not given)", "inactive"],
  ["Fc1ccc(C2(CCCN3CCc4[nH]c5cc(F)ccc5c4C3)OCCO2)cc1", "inactive"],
  ["CCCP1(=O)C=C(C)C(=C(Cl)Cl)C(C)=C1 (stereo not given)", "inactive"],
  ["CN1C(Cl)=NS(=O)(=O)c2ccccc21", "inactive"],
  ["COC(=O)C1=C(C(=O)OC)C2(c3ccccc3)c3ccccc3C(=O)C1N2C1CCCCC1 (stereo not given)", "inactive"]
]}
